Tested on: NCI-60 cell lines
Type: cell-based, human
endpoint_label: Cell Line with which the peptide (and its tripeptide motif) is associated

Consider the worked cases shown below.
Would you kindly share the measured Cell Line with which the peptide (and its tripeptide motif) is associated for SLRSGIV ? EKVX-Lung

Query: Cell Line with which the peptide (and its tripeptide motif) is associated; subject: SGVSVEG Hop-62-Lung

Recorded Cell Line with which the peptide (and its tripeptide motif) is associated for GSSLHLL , please? RPMI-8226-Leukemia

Please look up its Cell Line with which the peptide (and its tripeptide motif) is associated: TGFGAVG HL-60-Leukemia

Param item = NYGSSFH ; retrieve measured Cell Line with which the peptide (and its tripeptide motif) is associated. Hop-62-Lung

# query: Cell Line with which the peptide (and its tripeptide motif) is associated of entry AVSGRGW Molt-4-Leukemia

Others:
// lookup Cell Line with which the peptide (and its tripeptide motif) is associated for DVPGVRF EKVX-Lung

Field request: Cell Line with which the peptide (and its tripeptide motif) is associated | item: AAGREFR Hop-62-Lung

Recorded Cell Line with which the peptide (and its tripeptide motif) is associated of SGSRVSL , please. HL-60-Leukemia

// returns reported Cell Line with which the peptide (and its tripeptide motif) is associated for input KYYGLRR RPMI-8226-Leukemia

Form field: reported Cell Line with which the peptide (and its tripeptide motif) is associated of MGMSGPS CCRF-CEM Leukemia

Name the recorded Cell Line with which the peptide (and its tripeptide motif) is associated for ALVSRRG . Molt-4-Leukemia

Entry TGGSLGA has what Cell Line with which the peptide (and its tripeptide motif) is associated? EKVX-Lung

Entry under review: GLVSAFY . Reported Cell Line with which the peptide (and its tripeptide motif) is associated? Hop-62-Lung

---

System: NCI-60 cell lines
Format: cell-based, human
endpoint_label: Cell Line with which the peptide (and its tripeptide motif) is associated

Consider the following illustrative entries.
# value lookup — system NCI-60 cell lines, readout Cell Line with which the peptide (and its tripeptide motif) is associated, item SRYGVLV EKVX-Lung

Kindly state the measured Cell Line with which the peptide (and its tripeptide motif) is associated obtained for WLDASLM with NCI-60 cell lines. SR Leukemia

GET /values?readout=Cell Line with which the peptide (and its tripeptide motif) is associated&system=NCI-60 cell lines&item= LRLSSIP CCRF-CEM Leukemia

Tell me reported Cell Line with which the peptide (and its tripeptide motif) is associated for GGRSSHP , tested with NCI-60 cell lines. Molt-4-Leukemia

Hi! What's the reported Cell Line with which the peptide (and its tripeptide motif) is associated for WSAGGPH on NCI-60 cell lines? SR Leukemia

Provide value of Cell Line with which the peptide (and its tripeptide motif) is associated for this record tested with NCI-60 cell lines: VGSVGLG Hop-62-Lung

Further cases:
What is its Cell Line with which the peptide (and its tripeptide motif) is associated for NCI-60 cell lines? Entry: HPSMGGR Hop-62-Lung

NCI-60 cell lines / Cell Line with which the peptide (and its tripeptide motif) is associated / VAASESH : value? Hop-62-Lung

Record lookup: for NCI-60 cell lines, what Cell Line with which the peptide (and its tripeptide motif) is associated belongs to RGSAQNF ? RPMI-8226-Leukemia

Request body: readout Cell Line with which the peptide (and its tripeptide motif) is associated, system NCI-60 cell lines, query AVWRLSH . Return the value. H322-Lung

Checklist item: Cell Line with which the peptide (and its tripeptide motif) is associated tested on NCI-60 cell lines, entry GGVLYLE , value? H226-Lung
